Each recorded value in this set is attributed to the supplement of paper PMC10724198.

System: Saccharomyces cerevisiae
Experiment: protein stability index of tFT-peptide fusion (C-terminal peptide) (PSI (0-1 scale)); higher = more stable (slower turnover)
Details: genetic background: das1 deletion; temperature: 30 C
measuredAttribute: protein stability index
Field format: numeric only.

Asked: Please tell me: protein stability index of KILTQHLQDLQS [RKM2 C-terminal 12 aa] , system Saccharomyces cerevisiae?
Given back: 0.693

Asked: State its protein stability index on Saccharomyces cerevisiae: ECDGITVPEKLT [MSC6 C-terminal 12 aa]
Given back: 0.682

Asked: API: value(readout=protein stability index, system=Saccharomyces cerevisiae) for record LVAIDPRSEAYC [YMR324C C-terminal 12 aa]
Given back: 0.688

Asked: Lab request: please report protein stability index under test system Saccharomyces cerevisiae for ALNRADKMSTIG [URH1 C-terminal 12 aa]
Given back: 0.676

Asked: Lab note: need protein stability index for LKSGEKESNASK [SDC1 C-terminal 12 aa] on Saccharomyces cerevisiae, anyone have it?
Given back: 0.678

Asked: Fill in the recorded protein stability index for this sequence, with Saccharomyces cerevisiae as test system: VKTLANEILNII [ECM11 C-terminal 12 aa]
Given back: 0.669

Asked: Fill in the recorded protein stability index for this sequence, with Saccharomyces cerevisiae as test system: DPNGILNPYKYI [DLD2 C-terminal 12 aa]
Given back: 0.708

Asked: Recall the recorded protein stability index for TDTEAEDDESPE [SEC63 C-terminal 12 aa] with Saccharomyces cerevisiae and state it.
Given back: 0.692

Asked: Give the reported protein stability index for EYSKKYLTTFFQ [YEA6 C-terminal 12 aa] (system: Saccharomyces cerevisiae).
Given back: 0.706

Asked: Return protein stability index measured with Saccharomyces cerevisiae given this sequence: IGIGTHDLHFGS [YHR052W-A C-terminal 12 aa]
Given back: 0.728

Asked: Provide value of protein stability index for this record tested with Saccharomyces cerevisiae: EVLDQLEPQDSS [MCM6 C-terminal 12 aa]
Given back: 0.699

Asked: Lab note: need protein stability index for NINGTTAAVDVN [PAP1 C-terminal 12 aa] on Saccharomyces cerevisiae, anyone have it?
Given back: 0.661
